Attribution: PubChem BioAssay (NCI)

tested on: SF-539 CNS; assay: NCI-60 one-dose screen, 48 h (100 = growth as untreated, 0 = no growth, -100 = all killed); details: 10 µM unless noted
Compounds without any hit were thinned out: in the full panel of roughly 83,000, 20% have a hit.
RECORDED METRIC: growth (%)
Report the figure in % without appending any unit label.

INSERT INTO assay_data (molecule, assay_target, value_measured) VALUES
  ('COc1cc2c3c(c4c5ccccc5[nH]c4c2c(OC)c1OC)C(=O)N(O)C3=O', 'SF-539 CNS', 30.9),
  ('CCCCC(=O)OC1CCCCC1C (stereo not given)', 'SF-539 CNS', 103),
  ('Cc1cc2nc3c4cc(N)ccc4n(CCN(C)C)c3nc2cc1C', 'SF-539 CNS', 10.5),
  ('COc1cc2ncnc(Nc3ccc(OCc4cccc(F)c4)c(Cl)c3)c2cc1NC(=O)C1CCCC1', 'SF-539 CNS', 96.1),
  ('Nc1c(C(=O)Nc2cccc(Cl)c2)sc2ncc(Cl)cc12', 'SF-539 CNS', 60.8),
  ('CN1CCN(c2ccc3nc(-c4[nH]ncc4Nc4ncnc5c4OCCCN5)[nH]c3c2)CC1', 'SF-539 CNS', -86.7);

Recorded growth of Cc1nn(-c2ccc(Cl)cc2)c(=O)n1CCn1cnc2ccccc21 , please.
101

Consider the molecule Cc1nnc2nc(N)[nH]n2c1=O and give its measured growth.
114

Which growth reading was recorded for the molecule Cc1cc(N(CCCNc2ccnc3cc(Cl)ccc23)Cc2ccco2)nc(Cl)n1 ?
54.3

What measured growth goes with COc1cccc(-c2nn(-c3ccccc3)cc2-c2ccnc(NCCCNS(=O)(=O)c3ccc(C(F)(F)F)cc3)c2)c1 ?
46.4

So what does the record say about growth for COC(=O)[C@]12CC[C@@H](C)[C@H](C)[C@@H]1C1=CC[C@@H]3[C@@]4(C)C(c5ncon5)=C[C@@](C)(CO)C4=CC[C@@]3(C)[C@]1(C)CC2 ?
-86.2

Any idea what growth was measured for CC1(C)C(=O)CC[C@]2(C)[C@H]3C(=O)C=C4[C@@H]5C[C@@](C)(C(=O)NCCNCCN)CC[C@]5(C)CC[C@@]4(C)[C@]3(C)CC[C@@H]12 ?
98.7

Report growth for COc1cc2nc(Cl)nc(Nc3cccc(C(=O)/C=C/c4ccc(Br)cc4)c3)c2cc1OC please.
82.2

Param item = Cc1cc(C)c(NC(=O)c2sc3nc4c(cc3c2N)CCCC4)c(C)c1 ; retrieve measured growth.
26.9

###

test system: CAKI-1 renal; experiment: NCI-60 one-dose screen, 48 h (100 = growth as untreated, 0 = no growth, -100 = all killed); conditions: 10 µM unless noted
About 83,000 compounds went through this panel and 20% of them were active in at least one assay; those are over-represented in the sample as a whole.
Tick Criterion met if growth is 30% or greater. Tick Criterion not met if growth is less than 30%.

INSERT INTO results (chemical_structure, qualitative_label) VALUES
  ('COc1cc(-c2cc(-c3nc4ccc(F)cc4[nH]3)[nH]n2)cc(OC)c1OC', 'Criterion not met');

Check if growth >= 30% (inclusive). Item: N#CCCCCCn1c2ccccc2c2c3[nH]c(=O)[nH]c(=O)c3c3c4ccccc4n(CCCCCC#N)c3c21
Criterion met

Is it the case that Cn1cc(-c2nc(-c3c[nH]c4ncccc34)cs2)c2cc(Cl)ccc21 has growth reaching or exceeding 30%?
Criterion met

Identify whether the reported growth of the following compound is 30% or greater: COc1ccc(CCN2C(=O)C(C)(C)SC2=S)cc1OC
Criterion met

Form field: growth at least 30%? Entry: Fc1ccc2[nH]cc(-c3nc(-c4c[nH]c5ncccc45)cs3)c2c1
Criterion not met

###

test system: MOLT-4 leukemia; assay: NCI-60 one-dose screen, 48 h (100 = growth as untreated, 0 = no growth, -100 = all killed); conditions: 10 µM unless noted
About 83,000 compounds went through this panel and 20% of them were active in at least one assay; those are over-represented in the sample as a whole.
Measured growth accompanies every entry in the list below.
Response body: numeric value in %, unit text excluded.

In the examples that follow, each entry is paired with its recorded growth.
INSERT INTO results (chemical_structure, value_measured) VALUES
  ('Cc1ccc2[nH]cc(-c3nc(-c4cn(C)c5ncccc45)cs3)c2c1', 53.3),
  ('COC(=O)[C@]12CC[C@@H](C)[C@H](C)[C@@H]1C1=CC[C@@H]3[C@@]4(C)C[C@@H](OC(C)=O)[C@H](O)[C@@](C)(CO)[C@@H]4[C@H](O)C[C@@]3(C)[C@]1(C)CC2', -55.9),
  ('Brc1cnc2[nH]cc(-c3nnc(-c4ccccc4)o3)c2c1', 74.3),
  ('Cc1ccc(S(=O)(=O)Nc2ccc(-c3cc(-c4cccc(F)c4)c(C#N)c(N)n3)cc2)cc1', 9.77),
  ('CC(C)(C)c1cc(-n2c(-c3ccc(Cl)cc3)nc3cc(C(=O)Nc4ccc(Cl)cc4)ccc32)n[nH]1', 45.7),
  ('COC(=O)[C@]12CC[C@@H](C(C)=O)[C@@H]1[C@H]1CC[C@@H]3[C@@]4(C)C/C(=C/c5cccnc5)C(=O)C(C)(C)[C@@H]4CC[C@@]3(C)[C@]1(C)CC2', 5.47);

Reported growth, compound Cc1cc(C)c(NC(=O)c2sc3nc4c(cc3c2N)CCCC4)c(C)c1 : ____
29.9

Entry COc1ccc(/C=C/C(=O)NCCO)cc1 : reported growth = ?
101

###

System: SF-268 CNS
Test: NCI-60 one-dose screen, 48 h
Settings: 10 µM unless noted
Method: Cells are grown in 96 well plates and exposed to the test compound for 48 hours. Compounds are tested at a single concentration, which is 10^-5 M for most compounds. The reported endpoint is percent growth (GI% or GIPRCNT), where numbers from 0 - 100% represent growth inhibition, and numbers from -100% - 0 represent cell death. For example, a value of 40 represents 60% growth inhibition. A value of 0 means no net growth occurred over the course of the experiment. […]
The panel holds about 83,000 compounds, 20% with a hit somewhere; the sample as a whole holds those more often. The source made the active and inactive calls. How the source made its calls: active means growth percent below 10; inactive means the rest.
Classes to choose from: active, inactive

Study these solved cases before continuing.
INSERT INTO results (compound, qualitative_label) VALUES
  ('N#CC1C(=N)Cc2ccccc2-c2ccccc21 (stereo unspecified)', 'inactive'),
  ('COc1ccc(-c2nc(SCC(=O)Nc3ccc(C(C)=O)cc3)[nH]c(=O)c2C#N)cc1', 'inactive');

State the result this test recorded for O=S(=O)(NCCCNc1cc(-c2cn(-c3ccccc3)nc2-c2cccc(O)c2)ccn1)c1ccc(F)cc1 .
inactive

Hey, what did the test say about COc1ccc2c(c1)c(-c1nc(-c3c[nH]c4ncccc34)cs1)cn2CCCN1CCCCC1 ?
inactive

Field: outcome | Entry: COc1cc2c(cc1-c1c(C)noc1C)ncc1nc(C3CCC(F)(F)CC3)n([C@@H](C)COC(F)F)c12
inactive

For this compound, state the assay outcome: CC(=O)c1c(C)[nH]c(-c2nc3ccc(N4CCN(C)CC4)cc3[nH]2)c1-c1ccc2c(c1)OCCO2
inactive

What did this assay record as the result for Nc1ccc(Cl)cn1 ?
inactive

Hi, sorry to bother you, what did the test record for O=C1C(Cl)=C(Nc2ccc(S(=O)(=O)c3ccc(NC4=C(Cl)C(=O)c5ccccc5C4=O)cc3)cc2)C(=O)c2ccccc21 ?
active

// outcome(item) with item = Oc1cccc2oc(=S)[nH]c12
inactive

Please indicate how the test categorized COC(=O)[C@]12CC[C@@H](C)[C@H](C)[C@@H]1C1=CC[C@@H]3[C@@]4(C)C[C@@H](O)OC[C@](C)(C=O)C4C(=O)C[C@@]3(C)[C@]1(C)CC2 (stereo partly specified) .
inactive

What classification did CCOC(=O)N1CCN(CCCCOc2ccc(C(C)(C)CC)cc2)CC1 end up with in this test?
inactive

For COc1ccccc1-n1cnc(N)c1C(=O)c1cc(OC)c(OC)c(OC)c1 , what call appears in the results of this test?
inactive

###

system: NCI-H522 lung; assay: NCI-60 one-dose screen, 48 h (100 = growth as untreated, 0 = no growth, -100 = all killed); conditions: 10 µM unless noted
About 83,000 compounds went through this panel and 20% of them were active in at least one assay; those are over-represented in the sample as a whole.
The label 1 is reserved for growth strictly under 60%; 0 covers values equal to or above it.

Consider the following illustrative entries.
INSERT INTO assay_data (compound, qualitative_label) VALUES
  ('NC1=C(C/C(N)=N\O)C(c2ccccc2Cl)c2c(ccc3ccccc23)O1 (stereo unspecified)', 1),
  ('Cn1c(=O)c2c(nc(N3CCCC3)n2C)n(C)c1=O', 0),
  ('COc1ccc(O)c(-c2cc(-c3ccc(Cl)cc3)c(C#N)c(=O)[nH]2)c1', 1),
  ('NNC(=O)c1nc2ccccc2[nH]1', 0),
  ('COc1ccc(-c2nc3ccccn3c2-c2nc3ccc(Cl)cc3[nH]2)cc1', 0),
  ('COc1ccc2c(c1)c(-c1nc(-c3cn(C)c4ncccc34)cs1)cn2CCN', 0),
  ('O=C1/C(=C\c2ccc(Br)o2)SC(=S)N1CCc1ccc(O)cc1', 1),
  ('COc1ccc(/C=C/C(=O)NCC(C)O)cc1 (stereo unspecified)', 0);

I'd appreciate it if you could check whether O=c1[nH]ncc(Br)c1Br has growth smaller than 60%.
1

Field: below-cutoff. Rule: recorded growth strictly less than 60%. Subject: NC(Cc1ccc(O)cc1)C(=O)N/N=C/c1ccccc1O (stereo unspecified)
0
